System: large cell lung cancer cell lines (NCI-H460)
Assay: MTT cell growth inhibition assay, NCI-H460
Assay type: cell-based
Conditions: Homo sapiens, 48 h, NCI-H460 cells, two days, read-out: IC50 ± SD NCI-H460
Labelling: IC50 reported below 2 µM becomes Satisfied; at or above becomes Not satisfied.

Some solved cases for reference:
CCN(CC)CCNC(=O)c1c(Cl)[nH]c(/C=C2\C(=O)Nc3ccc(F)cc32)c1Cl [Compound 14m] ... Not satisfied
Cc1[nH]c(/C=C2\C(=O)Nc3ccc(F)cc32)c(Cl)c1C(=O)NC1CNC1 [Compound 14c] ... Satisfied
CCNCCNC(=O)c1c(Cl)[nH]c(/C=C2\C(=O)Nc3ccc(F)cc32)c1C [Compound 14p] ... Satisfied
CCN(CC)CCNC(=O)c1c(Cl)[nH]c(/C=C2\C(=O)Nc3ccc(F)cc32)c1C [Compound 14o] ... Not satisfied
CCN(CC)CCNC(=O)c1cc(/C=C2\C(=O)Nc3ccc(F)cc32)[nH]c1Cl [Compound 14n] ... Not satisfied
CCN(CC)CCNC(=O)c1c(C)[nH]c(/C=C2\C(=O)Nc3ccccc32)c1Cl [Compound 14k] ... Not satisfied

Does the reported IC50 of CCNCCNC(=O)c1c(Cl)[nH]c(/C=C2\C(=O)Nc3ccc(F)cc32)c1CC [Compound 14r] stay below 2 µM? Satisfied

Does the reported IC50 of Cc1[nH]c(/C=C2\C(=O)Nc3ccc(F)cc32)c(Cl)c1C(=O)NCCCN(C)C [Compound 14e] stay below 2 µM? Not satisfied

Does the reported IC50 of Cc1[nH]c(/C=C2\C(=O)Nc3ccc(F)cc32)c(Cl)c1C(=O)N1CCN(C)CC1 [Compound 14b] stay below 2 µM? Not satisfied

Does the reported IC50 of CCN(CC)CCNC(=O)c1c(C)[nH]c(/C=C2\C(=O)Nc3ccc(Cl)cc32)c1Cl [Compound 14i] stay below 2 µM? Not satisfied

Does the reported IC50 of CCN(CC)CCNC(=O)c1c(C)[nH]c(/C=C2\C(=O)Nc3ccc(F)cc32)c1Cl [Compound 14h] stay below 2 µM? Not satisfied

Does the reported IC50 of Cc1[nH]c(/C=C2\C(=O)Nc3ccc(F)cc32)c(Cl)c1C(=O)NCCN(C)C [Compound 14f] stay below 2 µM? Satisfied

Does the reported IC50 of CCN(CC)CCNC(=O)c1c(Cl)[nH]c(/C=C2\C(=O)Nc3ccc(Br)cc32)c1C [Compound 14j] stay below 2 µM? Not satisfied

Does the reported IC50 of CCc1c(/C=C2\C(=O)Nc3ccc(F)cc32)[nH]c(Cl)c1C(=O)NCCN(CC)CC [Compound 14q] stay below 2 µM? Not satisfied

Does the reported IC50 of CCN(CC)CCNC(=O)c1c(C)[nH]c(/C=C2\C(=O)Nc3ccc(F)cc32)c1C [Sunitinib, sunitinib, reference compound] stay below 2 µM? Not satisfied

Does the reported IC50 of CCNCCNC(=O)c1c(C)[nH]c(/C=C2\C(=O)Nc3ccc(F)cc32)c1Cl [Compound 14g] stay below 2 µM? Satisfied

====

Test system: oral epithelial (KB)
Assay: MTT cell growth inhibition assay, KB
Format: cell-based
Conditions: Homo sapiens, 48 h, KB cells, two days
Method: The antitumor activities of 14a-r were evaluated in vitro on four tumor cell lines, including non-small cell lung cancer (A549), oral epithelial (KB), melanoma (K111) and large cell lung cancer cell lines (NCI-H460) by the MTT assay, and the results are summarized in Table 1. […] The antitumor activities were determined by the MTT assay. […] Absorbance was measured at 492 nm using an ELISA reader (Thermo). The antitumor activities were expressed as IC50.
pIC50: −log10 of the molar value.
pIC50 of 5 or higher: satisfied. Under 5: not satisfied.

Some solved cases for reference:
CCc1c(/C=C2\C(=O)Nc3ccc(F)cc32)[nH]c(Cl)c1C(=O)NCCN(CC)CC [Compound 14q] ... not satisfied
CCNCCNC(=O)c1c(Cl)[nH]c(/C=C2\C(=O)Nc3ccc(F)cc32)c1CC [Compound 14r] ... satisfied
Cc1[nH]c(/C=C2\C(=O)Nc3ccc(F)cc32)c(Cl)c1C(=O)N1CCN(C)CC1 [Compound 14b] ... not satisfied
CCN(CC)CCNC(=O)c1c(Cl)[nH]c(/C=C2\C(=O)Nc3ccc(F)cc32)c1C [Compound 14o] ... satisfied
CCNCCNC(=O)c1c(Cl)[nH]c(/C=C2\C(=O)Nc3ccc(F)cc32)c1C [Compound 14p] ... satisfied
CCN(CC)CCNC(=O)c1c(C)[nH]c(/C=C2\C(=O)Nc3ccc(F)cc32)c1C [Sunitinib, sunitinib, reference compound] ... satisfied
CCN(CC)CCNC(=O)c1cc(/C=C2\C(=O)Nc3ccc(F)cc32)[nH]c1Cl [Compound 14n] ... satisfied
Cc1[nH]c(/C=C2\C(=O)Nc3ccc(F)cc32)c(Cl)c1C(=O)NCCN1CCOCC1 [Compound 14a] ... not satisfied
CCN(CC)CCNC(=O)c1c(Cl)[nH]c(/C=C2\C(=O)Nc3ccc(F)cc32)c1Cl [Compound 14m] ... not satisfied
Cc1[nH]c(/C=C2\C(=O)Nc3ccc(F)cc32)c(Cl)c1C(=O)NC1CNC1 [Compound 14c] ... satisfied

Would you say CCN(CC)CCNC(=O)c1c(C)[nH]c(/C=C2\C(=O)Nc3ccccc32)c1Cl [Compound 14k] shows pIC50 at minimum 5? satisfied

Would you say CCN(CC)CCNC(=O)c1c(C)[nH]c(/C=C2\C(=O)Nc3ccc(Cl)cc32)c1Cl [Compound 14i] shows pIC50 at minimum 5? satisfied

Would you say Cc1[nH]c(/C=C2\C(=O)Nc3ccc(F)cc32)c(Cl)c1C(=O)NCCCN(C)C [Compound 14e] shows pIC50 at minimum 5? satisfied

Would you say Cc1[nH]c(/C=C2\C(=O)Nc3ccc(F)cc32)c(Cl)c1C(=O)NCCN(C)C [Compound 14f] shows pIC50 at minimum 5? satisfied

Would you say CCNCCNC(=O)c1c(C)[nH]c(/C=C2\C(=O)Nc3ccc(F)cc32)c1Cl [Compound 14g] shows pIC50 at minimum 5? satisfied

Would you say CCN(CC)CCNC(=O)c1c(C)[nH]c(/C=C2\C(=O)Nc3ccc(C)cc32)c1Cl [Compound 14l] shows pIC50 at minimum 5? not satisfied

Would you say CCCNC(=O)c1c(C)[nH]c(/C=C2\C(=O)Nc3ccc(F)cc32)c1Cl [Compound 14d] shows pIC50 at minimum 5? not satisfied

Would you say CCN(CC)CCNC(=O)c1c(C)[nH]c(/C=C2\C(=O)Nc3ccc(F)cc32)c1Cl [Compound 14h] shows pIC50 at minimum 5? satisfied

Would you say CCN(CC)CCNC(=O)c1c(Cl)[nH]c(/C=C2\C(=O)Nc3ccc(Br)cc32)c1C [Compound 14j] shows pIC50 at minimum 5? not satisfied
